# TGT: histone deacetylase HD-1, RPD3 homologue (Zea mays)
# METHOD SUMMARY: Inhibition of in vitro enzyme activity measured in a highly purified maize Histone deacetylase 1 preparation
pIC50: −log10 of the molar value.

# STRUCTURE SMILES, pIC50
measured = [
    ("O=C(CCCCCCC(=O)N[C@@H](Cc1ccccc1)C(=O)NCc1ccccc1)NO", 7.40),
    ("O=C(CCCCCCC(=O)N[C@@H](Cc1ccccc1)C(=O)NCCc1ccccc1)NO", 7.60),
]
